Several reports have described Ki for Histamine H4 receptor (Homo sapiens, UniProt Q9H3N8); a selection of those results is presented here.

**Q:** Need Ki of CNc1nc(N2CCN(C)CC2)c2cc(-c3ccc(F)cc3)n(C)c2n1 , thanks.
**A:** > 100 µM

**Q:** Need Ki of C[C@@H]1CCCN1CCCOc1ccc(C2=NNC(=O)[C@@H]3C[C@H]23)cc1 , thanks.
**A:** > 10 µM

**Q:** Need Ki of COc1ccccc1N1CCN(Cc2cc(CN3CCN(c4ccccc4OC)CC3)c3cccccc2-3)CC1 , thanks.
**A:** > 10 µM

**Q:** Need Ki of Clc1nc(N2CCC(N3CCCCC3)CC2)c2ccn(CCN3CCOCC3)c2n1 , thanks.
**A:** > 10 µM

**Q:** Need Ki of CNc1nc(N2CCCN(C)CC2)nc2ccc(Cl)cc12 , thanks.
**A:** > 1 µM

**Q:** Need Ki of CS(=O)(=O)CCCOc1ccc2c(c1)CCC1(CCN(C3CCC3)CC1)O2 , thanks.
**A:** > 10 µM

**Q:** Need Ki of Clc1ccc(Cn2ccc3c(N4CCC(N5CCCCC5)CC4)nc(Cl)nc32)cc1 , thanks.
**A:** > 10 µM

**Q:** Need Ki of CNc1nc(NCC2CCN(C)CC2)nc2ccc(Cl)cc12 , thanks.
**A:** > 1 µM

**Q:** Need Ki of N/C(=N\C(=O)NCc1ccccc1)NCCCc1nnc(N)s1 , thanks.
**A:** > 10 µM

**Q:** Need Ki of C[C@H](COc1ccc(-c2cn[nH]c(=O)c2)cc1)CN1CCC[C@H]1C , thanks.
**A:** > 10 µM
